# experiment.summary: antimalarial activity against Dd2 strain (AID 2302);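 also: 0% = DMSO untreated growth and 100% = chloroquine plus artemisinin killed control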
# experimental.setup: P. falciparum Dd2 in RBCs, LDH growth readout, 72 h; at 2 µM; stronger effect = higher value
Parameter growth inhibition: see the listing below.
Give a bare numeral; the unit % is implied.

N#CN1CC[C@H](CS(=O)(=O)c2cccc(Br)c2)C1: 74
CCCCCc1ccc(NC(=O)Nc2ccc(Cn3ncc(N4CCCNCC4)c(Cl)c3=O)cc2)cc1: 23
CCN(CC)CCNc1ccnc2[nH]c3ccc([N+](=O)[O-])cc3c12: 76
CC12CCC(C(=O)N(CC(O)Cn3c4ccc(Cl)cc4c4cc(Cl)ccc43)C1=O)C2(C)C (centres undefined): 99
COc1ccc2c(NN=Cc3ccc(Cl)cc3)ccnc2c1: 100
COc1ccc(-c2cncc(-c3ccc(OC)c(OC)c3)n2)cc1OC: 90

### Prompt What value of growth inhibition has been recorded for this entry: C[C@@H](CNc1ccnc(Nc2ccc3[nH]c(=O)[nH]c3c2)n1)c1ccccc1
### Response 1

### Prompt // query: CCNc1cc(CCCC(=O)OCC)nc(Nc2ccc(C)cc2)n1
### Response 63

### Prompt What would you report for CCOc1cc(C(=O)NCc2cc(Cl)cc(Cl)c2)ccc1-c1nc2ccc(Cl)cc2[nH]1 ?
### Response 5

### Prompt Another: Cc1cccc2[nH]c(-c3cccc(-c4ccc(C(=O)NCCc5ccc(O)c(=O)[nH]5)cc4)c3)nc12
### Response 30

### Prompt Similarly, CC(=O)c1ccccc1OCCSc1nnc(Cc2cccs2)n1C1CCCCC1 ?
### Response 1

### Prompt Now give it for CC(C)(C)c1ccc(C(=O)N2CCC3(CC2)C(=O)N(CC(=O)NCC2CCCO2)CN3c2ccccc2)cc1 (centres undefined) too.
### Response 100

### Prompt And for CCc1cc(NC(=O)Nc2ccnc3ccccc23)ccc1OC ?
### Response 24

### Prompt Okay, and Fc1ccc2nc(-c3ccc(-c4ccc(CN5CCN(c6cnccn6)CC5)cc4)s3)[nH]c2c1 ?
### Response 98
